# System: Escherichia coli TOP10
# Protocol description: shrunken log2 fold change of peptide-encoding DNA abundance (4.5 h post-induction vs induction); higher = less antimicrobial activity (less host growth inhibition)
# Test context: time post-induction: 4.5 h; library: site-saturation at positions 5, 18, 19, 20
Reported endpoint: shrunken log2 fold change
Lab note: jot down the number only; don't add units.

Field: example entries. Status: answers known.
Escherichia coli TOP10 assay, sequence RRIRYRPPRLPRPRPRPLEWPRP , recorded shrunken log2 fold change = 0.00157

shrunken log2 fold change on Escherichia coli TOP10 for RRIRLRPPRLPRPRPRPRSWPRP is 0.297

Others:
Record RRIRRRPPRLPRPRPRPFRMPRP has Escherichia coli TOP10 shrunken log2 fold change equal to -0.0671

Value (shrunken log2 fold change, Escherichia coli TOP10) for record RRIRTRPPRLPRPRPRPIAEPRP = 0.0307

Kindly note: Escherichia coli TOP10, RRIRNRPPRLPRPRPRPQHTPRP , shrunken log2 fold change value reported: -0.402

Field shrunken log2 fold change (Escherichia coli TOP10), entry RRIRQRPPRLPRPRPRPMSFPRP : 0.0381

====

# Tested on: Escherichia coli TOP10
# Protocol description: shrunken log2 fold change of peptide-encoding DNA abundance (4.5 h post-induction vs induction); higher = less antimicrobial activity (less host growth inhibition)
# Test context: time post-induction: 4.5 h; library: site-saturation at positions 5, 18, 19, 20
# shrunken log2 fold change >= -0.1 gives YES, anything below gives NO

Example entries and their recorded answers appear below.
Query: Form field: shrunken log2 fold change at least -0.1? Entry: RRIRWRPPRLPRPRPRPHLCPRP
Result: NO

Query: Quick check: does RRIRYRPPRLPRPRPRPWMDPRP have shrunken log2 fold change greater than or equal to -0.1?
Result: NO

Query: Threshold query (shrunken log2 fold change >= -0.1) on RRIRHRPPRLPRPRPRPRQHPRP
Result: YES

Query: Hi team, for RRIRPRPPRLPRPRPRPRHIPRP , is the recorded shrunken log2 fold change at or above -0.1?
Result: YES

Query: # bool: shrunken log2 fold change of RRIRNRPPRLPRPRPRPHVNPRP >= -0.1
Result: NO

Query: Assess whether reported shrunken log2 fold change for RRIRDRPPRLPRPRPRPICKPRP sits at -0.1 or higher.
Result: YES

Query: Entry RRIRCRPPRLPRPRPRPAKVPRP : is its shrunken log2 fold change no less than -0.1?
Result: NO

Query: API: above_or_equal(metric=shrunken log2 fold change, cutoff=-0.1) for item RRIRRRPPRLPRPRPRPDFPPRP
Result: YES

Query: Confirm if shrunken log2 fold change reported for the sequence RRIRSRPPRLPRPRPRPFDLPRP is -0.1 or above.
Result: NO

Query: Test whether the sequence RRIRIRPPRLPRPRPRPFRMPRP records shrunken log2 fold change of -0.1 or higher.
Result: NO

Continuing:
Query: Reported shrunken log2 fold change at or above -0.1? RRIRVRPPRLPRPRPRPALPPRP
Result: YES

Query: Is it the case that RRIRLRPPRLPRPRPRPQAQPRP has shrunken log2 fold change reaching or exceeding -0.1?
Result: YES

Query: Is reported shrunken log2 fold change greater than or equal to -0.1 here: RRIRCRPPRLPRPRPRPRETPRP
Result: YES

Query: Identify whether the reported shrunken log2 fold change of the following sequence is -0.1 or greater: RRIRFRPPRLPRPRPRPNMRPRP
Result: YES

Query: Test whether the sequence RRIRIRPPRLPRPRPRPIPIPRP records shrunken log2 fold change of -0.1 or higher.
Result: NO

====

# shrunken log2 fold change values compiled below
# Tested on: Escherichia coli TOP10
# Protocol description: shrunken log2 fold change of peptide-encoding DNA abundance (4.5 h post-induction vs induction); higher = less antimicrobial activity (less host growth inhibition)
# Test context: time post-induction: 4.5 h; library: site-saturation at positions 5, 18, 19, 20
Just the number, please.

Sample records with shrunken log2 fold change:
Noted for RRIRQRPPRLPRPRPRPCIHPRP : its shrunken log2 fold change reads -0.734

For this sequence ( RRIRDRPPRLPRPRPRPGASPRP ), measured shrunken log2 fold change is 1.08

Briefly, shrunken log2 fold change measured for RRIRCRPPRLPRPRPRPPAMPRP : 0.241

Briefly, shrunken log2 fold change measured for RRIRGRPPRLPRPRPRPSAAPRP : 2.09

Measured shrunken log2 fold change, RRIRLRPPRLPRPRPRPWREPRP : -0.018

So, RRIRMRPPRLPRPRPRPNHGPRP ? Its shrunken log2 fold change was -0.00135

GET /value?item= RRIRSRPPRLPRPRPRPITYPRP &field=shrunken log2 fold change returns -0.361

Note: attention shifts to another entry.
So, RRIRHRPPRLPRPRPRPESLPRP ? Its shrunken log2 fold change was -0.245

====

# Test system: Escherichia coli TOP10
# Protocol description: shrunken log2 fold change of peptide-encoding DNA abundance (4.5 h post-induction vs induction); higher = less antimicrobial activity (less host growth inhibition)
# Test context: time post-induction: 4.5 h; library: site-saturation at positions 5, 18, 19, 20
Measured shrunken log2 fold change of individual entries

shrunken log2 fold change measured on RRIRQRPPRLPRPRPRPLSCPRP = -0.242

So for RRIRGRPPRLPRPRPRPPEYPRP , the logged shrunken log2 fold change turned out to be 0.448

The sequence RRIRNRPPRLPRPRPRPDSTPRP showed shrunken log2 fold change equal to -0.028

Short answer for RRIRPRPPRLPRPRPRPPQSPRP : shrunken log2 fold change was 0.621

Lab note: RRIRKRPPRLPRPRPRPPSYPRP gave shrunken log2 fold change of 0.667

Turning now to a further record.
The reported shrunken log2 fold change of the sequence RRIRYRPPRLPRPRPRPEMYPRP was -0.0203

====

# Test system: Escherichia coli TOP10
# Protocol description: shrunken log2 fold change of peptide-encoding DNA abundance (4.5 h post-induction vs induction); higher = less antimicrobial activity (less host growth inhibition)
# Test context: time post-induction: 4.5 h; library: site-saturation at positions 5, 18, 19, 20
# key: entry, value: shrunken log2 fold change
When you answer, write just the number.

response.value for RRIRLRPPRLPRPRPRPVRFPRP (field: shrunken log2 fold change) = 1.26

Continuing:
Reported shrunken log2 fold change of RRIRGRPPRLPRPRPRPYHTPRP : -0.779

shrunken log2 fold change recorded for this sequence, RRIRSRPPRLPRPRPRPTKKPRP , is 0.0472

Entry RRIRWRPPRLPRPRPRPASGPRP ; shrunken log2 fold change = 0.461

The sequence listed as RRIRSRPPRLPRPRPRPYNMPRP shows shrunken log2 fold change equal to -0.817

shrunken log2 fold change reading for RRIRFRPPRLPRPRPRPYYQPRP : -0.203

====

# maps each entry to its shrunken log2 fold change
# System: Escherichia coli TOP10
# Protocol description: shrunken log2 fold change of peptide-encoding DNA abundance (4.5 h post-induction vs induction); higher = less antimicrobial activity (less host growth inhibition)
# Test context: time post-induction: 4.5 h; library: site-saturation at positions 5, 18, 19, 20

Illustrative cases are given below, each with its answer.
Entry under test: RRIRLRPPRLPRPRPRPAKHPRP . Its shrunken log2 fold change was -0.221

Lab note: RRIRHRPPRLPRPRPRPEWRPRP gave shrunken log2 fold change of -0.0322

Entry under test: RRIRRRPPRLPRPRPRPHLFPRP . Its shrunken log2 fold change was 0.0328

Entry RRIRNRPPRLPRPRPRPRQYPRP — recorded shrunken log2 fold change = 0.0612

Field shrunken log2 fold change (entry RRIRARPPRLPRPRPRPFNYPRP ) reads -0.0393

Record RRIRERPPRLPRPRPRPTENPRP . Reported shrunken log2 fold change: -0.0185

New cases:
// RRIRQRPPRLPRPRPRPAPFPRP : shrunken log2 fold change value = 0.613

Recorded shrunken log2 fold change (sequence RRIRSRPPRLPRPRPRPYLYPRP ): -0.065

Per the record, RRIRRRPPRLPRPRPRPYTCPRP has shrunken log2 fold change of 0.0906

Sure, the documented shrunken log2 fold change for RRIRIRPPRLPRPRPRPLQIPRP is -0.165

Just so you know, measured shrunken log2 fold change for RRIRERPPRLPRPRPRPHLAPRP came out at 0.101

====

# System: Escherichia coli TOP10;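 also: peptides expressed intracellularly from a pBAD plasmid library in pooled LB shake-flask culture, induced with 0.3% L-arabinose, DNA abundance read by NGS, three biological replicates, DESeq2 with apeglm shrinkage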
# Protocol description: shrunken log2 fold change of peptide-encoding DNA abundance (4.5 h post-induction vs induction); higher = less antimicrobial activity (less host growth inhibition)
# Test context: time post-induction: 4.5 h; library: site-saturation at positions 5, 18, 19, 20
Reported endpoint: shrunken log2 fold change
Answer using only a numeral; do not append any unit.

Looking up RRIRRRPPRLPRPRPRPFEDPRP , I see its shrunken log2 fold change listed as -0.0157

Lookup result for RRIRYRPPRLPRPRPRPNWPPRP ; measured shrunken log2 fold change: 0.394

Record RRIRHRPPRLPRPRPRPLRGPRP . Reported shrunken log2 fold change: 1.02

Further cases:
Entry under test: RRIRARPPRLPRPRPRPPLIPRP . Its shrunken log2 fold change was 0.299

// recorded shrunken log2 fold change for RRIRMRPPRLPRPRPRPKDLPRP : 0.153

Notebook: RRIRERPPRLPRPRPRPNIPPRP , shrunken log2 fold change read as -0.396

# shrunken log2 fold change of RRIRMRPPRLPRPRPRPVDTPRP = 0.361

shrunken log2 fold change recorded for this sequence, RRIRTRPPRLPRPRPRPYEYPRP , is 0.0353

Recorded shrunken log2 fold change (sequence RRIRQRPPRLPRPRPRPDRYPRP ): 0.0513

The sequence RRIRKRPPRLPRPRPRPKMIPRP showed shrunken log2 fold change equal to -0.0764

GET /value?item= RRIRHRPPRLPRPRPRPMAEPRP &field=shrunken log2 fold change returns -0.165

Recorded shrunken log2 fold change (sequence RRIRDRPPRLPRPRPRPSADPRP ): 0.368
